System: Vero E6
Test: cell viability relative to DMSO; higher = less toxic
Settings: 72 h; 100 nM
Attribute: cell viability
Provide only the numeric value, understood in %.

Take a look at these entries with their results.
# MOLECULE, cell viability / %
data = [
    ("CCCCCCCCCCCCCCSCC(=O)O [tetradecylthioacetic-acid]", 98.2),
    ("CC(C)C(=O)OC[C@@]1(N=[N+]=[N-])O[C@@H](n2ccc(N)nc2=O)[C@H](OC(=O)C(C)C)[C@@H]1OC(=O)C(C)C [balapiravir]", 93.4),
    ("CCS(=O)(=O)N(Cc1cccnc1)c1cccc(-c2ccc(C#N)cc2)c1 [CBiPES]", 101),
]

INPUT: Look up cell viability for this molecule: Oc1cc2c(cc1O)[C@H]1c3ccccc3CN[C@@H]1CC2 (racemic) [dihydrexidine]
OUTPUT: 96.8

INPUT: Can you check O=C1c2ccccc2-c2n[nH]c3cccc1c23 [pyrazolanthrone] next?
OUTPUT: 99.8

INPUT: What about this molecule? CCOc1nc2cccc(C(=O)O)c2n1Cc1ccc(-c2ccccc2-c2nnn[nH]2)cc1 [candesartan]
OUTPUT: 95.3

INPUT: Please do the same for CCCN(CCC)S(=O)(=O)c1ccc(C(=O)O)cc1 [probenecid] as well.
OUTPUT: 103

INPUT: Then CN1C(=O)C[C@@H](C(=O)N[C@@H](Cc2c[nH]cn2)C(=O)N2CCC[C@H]2C(N)=O)NC1=O [taltirelin] ?
OUTPUT: 104

----------
System: U2OS
Test: cell viability relative to DMSO; higher = less toxic
Settings: 72 h; 100 nM
PROPERTY NAME: cell viability (%)
All answers are understood in %, so give the number only.

INPUT: Quick one: cell viability for NC(=S)N/N=C/c1ccncc1 [perchlozone] ?
OUTPUT: 101

----------
System: U2OS
Assay: cell viability relative to DMSO; higher = less toxic
Details: 72 h; 10000 nM
PROPERTY NAME: cell viability
Answer format: value, then unit.

Would you please look over these solved cases?
# COMPOUND, cell viability
rows = [
    ("Oc1c(Br)cc(Br)c2cccnc12", "94.6%"),
    ("CCOc1cc(C(=O)N2CCC(N3CCN(C)CC3)CC2)ccc1Nc1ncc2c(n1)N(C1CCCC1)c1ccccc1C(=O)N2C", "28.4%"),
    ("C[C@]12CCC(=O)C[C@@H]1CC[C@@H]1[C@@H]2CC[C@]2(C)[C@@H](O)CC[C@@H]12 [Dihydrotestosterone]", "98.9%"),
]

Field: next compound
INPUT: Recorded cell viability for C=C1CC[C@H](O)C/C1=C/C=C1\CCC[C@]2(C)[C@@H]([C@H](C)/C=C/[C@H](C)C(C)C)CC[C@@H]12 , please?
OUTPUT: 94.3%

----------
Tested on: Caco-2
Experiment: cell viability relative to DMSO; higher = less toxic
Conditions: 72 h; 1 nM
Reported cell viability is given for each of the following molecules.
Write down the numeric answer in % and omit the unit.

Study these solved cases before continuing.
# MOLECULE, cell viability (%)
measured = [
    ("CC(=O)c1cnc2ccc(-c3cc(Cl)c(O)c(Cl)c3)nc2c1N[C@H]1CC[C@H](CN(C)C)CC1 [OTS167]", 98.5),
    ("COc1cccc(CN(C(=O)CC(C)(C)C)[C@H]2C[C@@H](C(=O)N3CCNCC3)N(Cc3ccc4c(c3)OCO4)C2)c1", 98.4),
    ("CC(=O)N[C@@H](CCC(N)=O)C(=O)O [aceglutamide]", 95.5),
]

INPUT: What does the record list as cell viability for Nc1nc(=O)n([C@H]2C[C@H](O)[C@@H](CO)O2)cc1Cl [cytochlor] ?
OUTPUT: 90

INPUT: Likewise for O=C(O)CNC(=O)C(CS)Cc1ccccc1 (stereo not given) [thiorphan] ?
OUTPUT: 107

INPUT: COc1cccc(OC)c1-c1cc(C(=O)N[C@@H](CC(C)C)C(=O)O)nn1-c1ccnc2cc(Cl)ccc12 [TC-NTR1-17] ?
OUTPUT: 103

INPUT: Here is the next molecule: c1ccc(-c2n[nH]c3c2oc2ccccc23)cc1
OUTPUT: 107

INPUT: Now try C=C1C[C@@]2(O)O[C@@]3(C[C@H]2C(C)C)[C@@H](C)CC[C@@H]13 [curcumol] .
OUTPUT: 108

INPUT: Also CCCCc1ccc(C(N)=O)nc1 [bupicomide] ?
OUTPUT: 94.6

INPUT: Repeat for the following molecule: CSC[C@H](N)C(=O)O [S-methylcysteine]
OUTPUT: 79.7
